Kindly supply the reported IC50 values for the records listed here.
- Tgt: UniProtKB Q1A7N1
- Sequence (Q1A7N1 whole entry): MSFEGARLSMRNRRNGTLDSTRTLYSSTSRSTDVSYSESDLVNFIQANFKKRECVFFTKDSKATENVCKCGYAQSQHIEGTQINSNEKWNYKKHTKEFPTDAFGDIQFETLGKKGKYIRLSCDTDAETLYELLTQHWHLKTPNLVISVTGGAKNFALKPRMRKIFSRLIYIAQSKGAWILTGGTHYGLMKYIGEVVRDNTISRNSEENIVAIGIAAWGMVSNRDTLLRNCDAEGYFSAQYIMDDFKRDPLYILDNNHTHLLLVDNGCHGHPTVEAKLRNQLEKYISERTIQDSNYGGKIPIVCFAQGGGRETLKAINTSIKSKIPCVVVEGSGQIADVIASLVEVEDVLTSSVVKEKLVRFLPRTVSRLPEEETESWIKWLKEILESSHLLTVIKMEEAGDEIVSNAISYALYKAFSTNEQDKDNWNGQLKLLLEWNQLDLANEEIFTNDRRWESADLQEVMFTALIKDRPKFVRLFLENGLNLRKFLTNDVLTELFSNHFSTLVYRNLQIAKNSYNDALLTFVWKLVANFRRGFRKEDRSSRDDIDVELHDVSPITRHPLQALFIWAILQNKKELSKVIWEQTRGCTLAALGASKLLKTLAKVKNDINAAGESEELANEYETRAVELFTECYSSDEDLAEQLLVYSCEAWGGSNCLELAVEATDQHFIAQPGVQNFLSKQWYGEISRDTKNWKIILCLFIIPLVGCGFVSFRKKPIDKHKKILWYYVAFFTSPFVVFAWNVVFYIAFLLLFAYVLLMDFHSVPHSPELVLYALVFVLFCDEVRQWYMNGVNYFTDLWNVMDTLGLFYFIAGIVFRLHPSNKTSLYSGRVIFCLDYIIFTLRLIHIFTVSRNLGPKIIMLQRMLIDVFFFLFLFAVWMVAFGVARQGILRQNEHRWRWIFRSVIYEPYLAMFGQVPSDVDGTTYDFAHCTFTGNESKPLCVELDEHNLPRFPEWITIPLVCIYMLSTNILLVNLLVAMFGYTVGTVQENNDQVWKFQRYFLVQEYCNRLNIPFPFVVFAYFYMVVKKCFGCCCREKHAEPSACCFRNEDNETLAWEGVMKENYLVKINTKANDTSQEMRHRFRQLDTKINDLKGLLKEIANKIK
- Experimental details: Antagonist activity at dog TRPM8 expressed in HEK293 cells assessed as inhibition of icilin-induced calcium influx incubated for 5 mins prior to icilin induction measured after 5 mins by fluorescence assay
Please reply with the bare figure in nM and do not write the unit itself.

In: Tell me the measured IC50 of O=C(C(Nc1ccccc1F)c1ccc(Br)cc1)N1CCC[C@H]1c1ccccc1F (mixture of isomers) , please.
Out: 9

In: Consider the compound O=C(C(Nc1ccccc1F)c1ccc(C(F)(F)F)cc1)N1CCC[C@@H]1c1ccccc1F (mixture of isomers) and give its measured IC50.
Out: 44

In: If you can, please state the reported IC50 value of O=C(O)c1ccc(C2CCCN2C(=O)C(Nc2ccccc2F)c2cc3ccccc3s2)cc1 (racemic) .
Out: 41

In: Requested read-out: IC50. Entry: "O=C([C@@H](Nc1ccccc1F)c1ccc(C(F)(F)F)cc1)N1CCC[C@H]1c1ccccc1F"
Out: 6

In: GET /values?readout=IC50&item= "O=C([C@H](Nc1ccccc1F)c1ccc(C(F)(F)F)cc1)N1CCC[C@H]1c1ccccc1F"
Out: 45

In: Entry under review: O=C(C(Nc1ccccc1F)c1ccc(C(F)(F)F)cc1)N1CCC[C@H]1c1ccccc1Cl (mixture of isomers) . Reported IC50?
Out: 17

In: Which measured IC50 value corresponds to O=C(O)c1cccc(C2CCCN2C(=O)C(Nc2ccccc2F)c2ccc(C(F)(F)F)cc2)c1 (racemic) ?
Out: 40

In: I have this compound here, O=C(O)c1ccc(-c2ccc(C(Nc3ccccc3F)C(=O)N3CCC[C@H]3c3ccccc3F)cc2)cc1 (mixture of isomers) , and I need its recorded IC50.
Out: 56

In: Form field: reported IC50 of O=C(C(Nc1ccccc1F)c1ccc(-c2cccnc2)cc1)N1CCC[C@H]1c1ccccc1F (mixture of isomers)
Out: 7

In: Given the entry O=C(C(Nc1ccccc1)c1ccc(C(F)(F)F)cc1)N1CCC[C@@H]1c1ccccc1Cl (mixture of isomers) , report its measured IC50.
Out: 168

In: I would be grateful if you could share the reported IC50 for O=C(C(Nc1ccccc1F)c1ccc(C(F)(F)F)cc1)N1CCC[C@H]1c1ccccc1F (mixture of isomers) .
Out: 8

In: Query: IC50; subject: O=C(C(Nc1ccccc1F)c1ccc(C(F)(F)F)cc1)N1CCCC1c1ccccc1Cl (racemic)
Out: 11

In: Form field: reported IC50 of O=C(C(Nc1ccccc1)c1ccc(C(F)(F)F)cc1)N1CCC[C@H]1c1ccccc1Cl (mixture of isomers)
Out: 41

In: # get_value(readout='IC50', item= O=C(C(Nc1ccccc1F)c1cc2ccccc2s1)N1CCC[C@H]1c1ccccc1F (mixture of isomers) )
Out: 3

In: GET /values?readout=IC50&item= O=C(C(Nc1ccccc1F)c1ccc(C(F)(F)F)cc1)N1CCC[C@H]1c1ccccc1 (mixture of isomers)
Out: 5

In: I am curious: what IC50 value has been reported for O=C(C(Nc1ccccc1F)c1ccc(C(F)(F)F)cc1)N1CCC[C@@H]1c1ccccc1 (stereo partly drawn) ?
Out: 43

In: Look up IC50 for this compound: O=C(C(Nc1ccccc1F)c1ccc(-c2ccncc2)cc1)N1CCCC1c1ccccc1F (racemic)
Out: 25

In: Entry O=C(C(Nc1ccccc1F)c1ccc(C(F)(F)F)cc1)N1CCCC1c1ccccc1F (racemic) has what IC50?
Out: 7
